experimental_system: human histamine H3 receptor (Homo sapiens, UniProt Q9Y5N1)
Construct: One microgram of supercoiled H3 receptor cDNA was added to the cells and mixed; expressed in transfected cells; membranes
Sequence (Q9Y5N1 whole entry): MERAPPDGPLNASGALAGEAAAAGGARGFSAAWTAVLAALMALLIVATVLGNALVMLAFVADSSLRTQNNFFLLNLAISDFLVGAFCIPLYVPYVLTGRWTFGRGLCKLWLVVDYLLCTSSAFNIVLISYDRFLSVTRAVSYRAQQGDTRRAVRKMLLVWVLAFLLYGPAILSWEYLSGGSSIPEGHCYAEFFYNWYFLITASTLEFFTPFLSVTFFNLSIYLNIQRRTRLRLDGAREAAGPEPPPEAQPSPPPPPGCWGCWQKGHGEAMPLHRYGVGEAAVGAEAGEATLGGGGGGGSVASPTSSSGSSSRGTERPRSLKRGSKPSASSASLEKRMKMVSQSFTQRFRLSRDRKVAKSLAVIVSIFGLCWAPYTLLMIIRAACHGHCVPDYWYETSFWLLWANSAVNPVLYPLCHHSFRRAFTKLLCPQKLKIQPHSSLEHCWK
measurement_protocol: [3H]-N-methylhistamine binding
details: Table 2; [3H]-N-methylhistamine binding
Listed below: Ki values for each entry.
observation_type: Ki (nM)

[
  {
    "compound": "O=c1[nH]c(Sc2ccc([C@H]3CC[C@H]4CCCCN43)cc2)nc2ccccc12 (racemic)",
    "observation_type": "Ki",
    "recorded_number": 163
  },
  {
    "compound": "c1cncc(Oc2ccc([C@H]3CC[C@H]4CCCCN43)cc2)c1 (racemic)",
    "observation_type": "Ki",
    "recorded_number": 150
  },
  {
    "compound": "c1ccc2[nH]c(Oc3ccc([C@H]4CC[C@H]5CCCCN54)cc3)nc2c1 (racemic)",
    "observation_type": "Ki",
    "recorded_number": 490
  },
  {
    "compound": "c1ccc(Sc2ccc([C@H]3CC[C@H]4CCCCN43)cc2)nc1 (racemic)",
    "observation_type": "Ki",
    "recorded_number": 205
  },
  {
    "compound": "c1cnc(Sc2ccc([C@H]3CC[C@H]4CCCCN43)cc2)nc1 (racemic)",
    "observation_type": "Ki",
    "recorded_number": 650
  },
  {
    "compound": "N#Cc1ccc(Sc2ccc([C@H]3CC[C@H]4CCCCN43)cc2)cc1 (racemic)",
    "observation_type": "Ki",
    "recorded_number": 558
  }
]
